Target system: PPAR delta (Homo sapiens)
Sequence (Q03181 211-439 limits assumed): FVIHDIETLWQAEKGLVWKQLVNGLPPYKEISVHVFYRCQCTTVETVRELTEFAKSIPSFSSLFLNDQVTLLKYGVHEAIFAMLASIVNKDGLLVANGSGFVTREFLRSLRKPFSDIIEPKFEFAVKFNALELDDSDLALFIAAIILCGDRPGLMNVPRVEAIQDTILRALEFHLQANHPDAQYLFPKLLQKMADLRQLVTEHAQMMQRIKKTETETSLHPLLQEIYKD
Assay procedure: Transient transfection (transactivation) assay in CV-1 cells, GAL4-PPAR chimera, luciferase reporter
Observation type: EC50

Illustrative cases are given below, each with its answer.
Molecule | EC50
Cc1cc(CC(=O)O)cc(S(=O)(=O)N2CCN(c3ccc(C(F)(F)F)c(F)c3)[C@@H](C)C2)c1 | < 5 µM
O=C(O)Cc1c(F)ccc(S(=O)(=O)N2CCN(c3ccc(C(F)(F)F)cn3)CC2)c1F | < 5 µM
Cc1ccc(S(=O)(=O)N2CCN(c3cnc(Cl)cn3)CC2)cc1CC(=O)O | > 100 µM
COc1ccc(N2CCN(S(=O)(=O)c3cccc(CC(=O)O)c3)CC2)cc1 | 5 to 100 µM

Report EC50 for every entry below.
1. Cc1ccc(S(=O)(=O)N2CCN(c3ccc(C(F)(F)F)nn3)CC2)cc1CC(=O)O
2. C[C@@H]1CN(c2ccc(C(F)(F)F)cn2)C[C@H](C)N1S(=O)(=O)c1cc(CC(=O)O)cc(C(F)(F)F)c1
3. Cc1ccc(S(=O)(=O)N2CCC(c3ccc(Cl)c(Cl)c3)CC2)cc1CC(=O)O
4. CCC1CN(c2ccc(C(F)(F)F)cn2)CCN1S(=O)(=O)c1ccc(C)c(CC(=O)O)c1 (stereo not shown)
5. Cc1ccc(S(=O)(=O)N2CC=C(c3ccc(C(F)(F)F)cc3)CC2)cc1CC(=O)O
6. Cc1cc(CC(=O)O)cc(S(=O)(=O)N2[C@H](C)CN(c3ccc(OC(F)(F)F)cc3)C[C@@H]2C)c1
7. COc1ccc(CC(=O)O)cc1S(=O)(=O)N1CCN(c2ccc(C(F)(F)F)cn2)CC1
8. C[C@H]1CN(c2ccc(C(F)(F)F)c(F)c2)CCN1S(=O)(=O)c1cccc(CC(=O)O)c1

Reply text:
1. 5 to 100 µM
2. < 5 µM
3. 5 to 100 µM
4. < 5 µM
5. < 5 µM
6. < 5 µM
7. < 5 µM
8. < 5 µM

For every item in the list below, what is its measured EC50?
1. Cc1ccc(CC(=O)O)cc1S(=O)(=O)N1CCN(c2ccc(C#N)cc2)CC1
2. COc1ccc(S(=O)(=O)N2CCN(c3ccc(C(F)(F)F)cc3)CC2)cc1CC(=O)O
3. Cc1cccc(N2CCN(S(=O)(=O)c3cc(C)cc(CC(=O)O)c3)CC2C)c1 (stereo not shown)
4. Cc1cc(CC(=O)O)cc(S(=O)(=O)N2[C@H](C)CN(c3ccc(C(F)(F)F)c(F)c3)C[C@@H]2C)c1

Reply text:
["> 100 µM", "< 5 µM", "5 to 100 µM", "< 5 µM"]

====

Target system: UniProt:Q07869
Sequence (Q07869 239-466 limits assumed): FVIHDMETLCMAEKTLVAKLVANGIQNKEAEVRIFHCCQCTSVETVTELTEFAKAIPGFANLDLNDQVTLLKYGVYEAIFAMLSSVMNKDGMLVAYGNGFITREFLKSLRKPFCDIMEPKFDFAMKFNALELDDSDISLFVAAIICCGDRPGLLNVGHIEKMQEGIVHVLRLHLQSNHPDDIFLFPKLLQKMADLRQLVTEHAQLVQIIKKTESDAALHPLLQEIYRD
Assay procedure: Transient transfection (transactivation) assay in CV-1 cells, GAL4-PPAR chimera, luciferase reporter
Kindly supply the reported EC50 values for the records listed here.

A selection of reference data follows.
Compound | Observed value
O=C(O)Cc1cccc(S(=O)(=O)N2CCC(c3ccc(Cl)cc3)CC2)c1 [Example 184] | > 100 µM
C[C@@H]1CN(c2ccc(OC(F)(F)F)cc2)C[C@H](C)N1S(=O)(=O)c1cc(Br)cc(CC(=O)O)c1 [Example 200] | 5 to 100 µM
O=C(O)Cc1cccc(S(=O)(=O)N2CCN(c3cccc(Br)c3)CC2)c1 [Example 125] | 5 to 100 µM
Cc1cccc(N2CCN(S(=O)(=O)c3ccc(C)c(CC(=O)O)c3)CC2C)c1 (stereo not shown) [Example 177] | > 100 µM
Cc1ccc(S(=O)(=O)N2CCC(c3nccs3)CC2)cc1CC(=O)O [Example 43] | > 100 µM

Record EC50 per entry; entries follow.
1. Cc1ccc(N2CCN(S(=O)(=O)c3cccc(CC(=O)O)c3)CC2)cc1C [Example 119]
2. COc1ccc(N2CCN(S(=O)(=O)c3cccc(CC(=O)O)c3)CC2)cc1OC [Example 127]
3. Cc1cc(CC(=O)O)cc(S(=O)(=O)N2[C@H](C)CN(c3ccc(C(F)(F)F)c(Cl)c3)C[C@@H]2C)c1 [Example 112]

Reply text:
1: 5 to 100 µM; 2: > 100 µM; 3: 5 to 100 µM

Could I get EC50 for every one of these entries?
1. Cc1ccc(Cl)cc1N1CCN(S(=O)(=O)c2cc(CC(=O)O)ccc2C)CC1 [Example 151]
2. Cc1ccc(S(=O)(=O)N2[C@H](C)CN(c3ccc(Cl)c(Cl)c3)C[C@@H]2C)cc1CC(=O)O [Example 83]

Reply text:
1. > 100 µM
2. > 100 µM

Go through the list and state EC50 for each entry.
1. O=C(O)Cc1cccc(S(=O)(=O)N2CCN(C(c3ccc(F)cc3)c3ccc(F)cc3)CC2)c1 [Example 138]
2. Cc1ccc(CC(=O)O)cc1S(=O)(=O)N1CCN(c2ccccc2C#N)CC1 [Example 162]
3. O=C(O)Cc1cc(C(F)(F)F)cc(S(=O)(=O)N2CCN(c3ccc(C(F)(F)F)cc3)CC2)c1 [Example 202]
4. Cc1cc(CC(=O)O)cc(S(=O)(=O)N2[C@@H](C)CN(c3ccc(C(F)(F)F)cn3)C[C@@H]2C)c1 [Example 195]
5. CC(C)(Oc1cccc(S(=O)(=O)N2CCN(c3ccc(Cl)c(Cl)c3)CC2)c1)C(=O)O [Example 189]
6. Cc1cc(S(=O)(=O)N2CCN(c3ccc(C(F)(F)F)cn3)CC2)cc(CC(=O)O)c1Br [Example 196]
7. Cc1ccc(N2CCN(S(=O)(=O)c3cc(CC(=O)O)ccc3C)CC2)cc1C [Example 150]
8. COc1ccc(CC(=O)O)cc1S(=O)(=O)N1[C@H](C)CN(c2ccc(C(F)(F)F)cn2)C[C@@H]1C [Example 82]

Reply text:
1: > 100 µM; 2: > 100 µM; 3: 5 to 100 µM; 4: 5 to 100 µM; 5: > 100 µM; 6: 5 to 100 µM; 7: > 100 µM; 8: > 100 µM

====

Provide the reported pEC50 of each item.
Target system: UniProtKB P37231
Sequence (P37231 238-503 limits assumed): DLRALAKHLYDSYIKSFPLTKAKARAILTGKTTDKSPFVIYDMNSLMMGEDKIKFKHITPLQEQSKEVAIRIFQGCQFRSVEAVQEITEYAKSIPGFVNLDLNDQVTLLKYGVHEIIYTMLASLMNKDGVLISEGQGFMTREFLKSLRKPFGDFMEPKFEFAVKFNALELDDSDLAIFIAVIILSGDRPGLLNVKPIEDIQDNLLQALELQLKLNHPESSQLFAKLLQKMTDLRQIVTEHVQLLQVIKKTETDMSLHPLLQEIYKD
Assay procedure: Transient transfection (transactivation) assay in CV-1 cells, GAL4-PPAR chimera, luciferase reporter
pEC50: −log10 of the molar value.

Worked examples follow.
Compound | Observed value
Cc1ccc(Cl)cc1N1CCN(S(=O)(=O)c2cccc(CC(=O)O)c2)CC1 | < 4.00
Cc1ccc(S(=O)(=O)N2CCN(c3ccc(C(C)(C)C)cc3)CC2)cc1CC(=O)O | 4.00 to 5.30

Below are 6 compounds. Give each one its pEC50.
1. Cc1ccc(S(=O)(=O)N2CCN(c3ncc(Br)s3)CC2)cc1CC(=O)O
2. Cc1ccc(S(=O)(=O)N2CCN(c3ccccc3)CC2)cc1CC(=O)O
3. COC[C@@H]1CN(S(=O)(=O)c2ccc(C)c(CC(=O)O)c2)CCN1c1ccc(C(F)(F)F)cn1
4. Cc1ccc(CC(=O)O)cc1S(=O)(=O)N1CCC(c2ccc(Cl)cc2)CC1
5. CCOc1ccccc1N1CCN(S(=O)(=O)c2cccc(CC(=O)O)c2)CC1
6. Cc1ccc(N2CCN(S(=O)(=O)c3cccc(CC(=O)O)c3)CC2)c(C)c1

Reply text:
4.00 to 5.30
4.00 to 5.30
< 4.00
< 4.00
< 4.00
4.00 to 5.30

For each of the items listed, what is its pEC50?
1. Cc1ccc(CC(=O)O)cc1S(=O)(=O)N1CCN(CC2CCCCC2)CC1
2. O=C(O)Cc1cccc(S(=O)(=O)N2CCN(c3ccc(Cl)c(Cl)c3)CC2)c1
3. Cc1ccc(CC(=O)O)cc1S(=O)(=O)N1CCN(Cc2ccc(F)cc2)CC1
4. Cc1ccc(S(=O)(=O)N2CCN(c3ccc(Cl)c(Cl)c3)[C@@H](C)C2)cc1CC(=O)O

Reply text:
["4.00 to 5.30", "4.00 to 5.30", "4.00 to 5.30", "4.00 to 5.30"]

Value sought for every listed compound: pEC50.
1. Cc1ccc(S(=O)(=O)N2CCCN(c3ccc(C(F)(F)F)cc3)CC2)cc1CC(=O)O
2. Cc1ccc(S(=O)(=O)N2CCN(c3ccc(C(F)(F)F)cc3F)CC2)cc1CC(=O)O

Reply text:
1: 4.00 to 5.30; 2: > 5.30

For each entry beneath this line, provide reported pEC50.
1. Cc1ccc(S(=O)(=O)N2C[C@H](C)N(c3ccc(C(F)(F)F)cn3)[C@@H](C)C2)cc1CC(=O)O
2. C[C@H]1CN(S(=O)(=O)c2cccc(CC(=O)O)c2)CCN1c1ccc(OC(F)(F)F)cc1
3. Cc1cc(CC(=O)O)cc(S(=O)(=O)N2CCN(c3ccccc3F)CC2)c1
4. O=C(O)Cc1cccc(S(=O)(=O)N2CCN(CCc3ccccc3)CC2)c1
5. Cc1ccc(S(=O)(=O)N2CCN(c3cnc(Cl)cn3)CC2)cc1CC(=O)O

Reply text:
4.00 to 5.30
4.00 to 5.30
< 4.00
< 4.00
< 4.00

Dear colleague, could you send me pEC50 for each of the items below? Thanks.
1. Cc1ccc(S(=O)(=O)N2CCN(c3cc(C(F)(F)F)ccn3)CC2)cc1CC(=O)O
2. Cc1cc(CC(=O)O)cc(S(=O)(=O)N2[C@H](C)CN(c3ccc(OC(F)(F)F)cc3)C[C@@H]2C)c1
3. Cc1ccc(S(=O)(=O)N2C[C@H](C)N(c3ccc(C(F)(F)F)cn3)C[C@H]2C)cc1CC(=O)O (mixture of isomers)
4. Cc1ccc(S(=O)(=O)N2CCC(c3nccs3)CC2)cc1CC(=O)O
5. CC(C)(Oc1cccc(S(=O)(=O)N2CCN(c3ccc(C(F)(F)F)cc3)CC2)c1)C(=O)O

Reply text:
1: 4.00 to 5.30; 2: 4.00 to 5.30; 3: 4.00 to 5.30; 4: < 4.00; 5: 4.00 to 5.30
